Data origin: PubChem BioAssay AID624202

assay: qHTS Assay to Identify Small Molecule Activators of BRCA1 Expression; conditions: MCF7-BRCA1-FFLuc reporter, luminescence, 48 h; series mostly up to 46.1 µM; also: nearly all actives have a fitted effect of over 80% in size
About 4,000 (1.1%) of roughly 380,000 compounds were called active. About 3% were inconclusive and are not listed. Calls follow the shape of the dose curve; as a rule, active = well fitted activation curve with a large enough effect; inconclusive = small, poorly fitted or top-dose-only effect; inactive = no such curve, though single readings can be large or run the other way. For the sample, actives were picked, then their nearest neighbours and some compounds at random.
Classes used: True for active, False for inactive

>>> label_value("CCCCCn1c(=O)[nH]c2cc(C(=O)NCCN(C)CCCC)ccc2c1=O")
"False"
>>> label_value("CCC(CC)c1nnc(NC(=O)C2=COCCO2)s1")
"True"
>>> label_value("Cc1sc(NC(=O)C2=COCCO2)c(C#N)c1C")
"True"
>>> label_value("CCc1nn(CCCC(=O)NCc2ccccc2OC)c(=O)c2cc3occc3n12")
"False"
>>> label_value("CCC(CC)c1nnc(NC(=O)C2CCN(C(=O)c3ccco3)CC2)s1")
"False"
>>> label_value("COc1ccc(CCNC(=O)CCc2c(C)nc3c(c(C)nn3-c3ccc(C)c(C)c3)c2C)c(OC)c1OC")
"False"
>>> label_value("Cc1ccc(OCCSc2nc3ccc(NC(=O)COc4ccc(C)cc4)cc3s2)cc1")
"False"
>>> label_value("COc1ccc(C2NC(=O)N(C)C3=C2C(=O)N(c2ccc(C(=O)O)cc2)C3)cc1 (stereo not drawn)")
"False"
